Tested on: WT E. coli
Assay: Minimal inhibitory concentration in wild-type E. coli
Type: cell-based, Escherichia coli
Details: wild-type E. coli, 37° C., 16 hours; read-out: MIC (μM) in WT E. coli
measurement.label: MIC

Return MIC for the following compound: "CO[C@@H]1[C@@H](OC(N)=O)[C@@H](O)[C@H](Oc2ccc3c(O)c(NC(=O)c4cc(O)cc(-c5ccccc5)c4)c(=O)oc3c2C)OC1(C)C"
59 µM

Could you please provide reported MIC for "CO[C@@H]1[C@@H](OC(N)=O)[C@@H](O)[C@H](Oc2ccc3c(O)c(NC(=O)c4cc(-c5ccccc5)cc(-c5ccccc5)c4)c(=O)oc3c2C)OC1(C)C" ? Thanks!
>300 µM

Look up MIC of "CO[C@@H]1[C@@H](OC(N)=O)[C@@H](O)[C@H](Oc2ccc3c(O)c(NC(=O)c4ccc5ccn(C)c5c4)c(=O)oc3c2C)OC1(C)C" and report it.
>300 µM
